All values here come from patent US20240241135A1.

Would you mind telling me the reported OD value of each entry?
Biological target: T1, recombinant human regenerating islet-derived protein 1α (REG1A) (human, UniProt P05451 23-166, limits assumed)
T1 construct: also called recombinant human REG1A; recombinant REG1A
T1 sequence (looked up): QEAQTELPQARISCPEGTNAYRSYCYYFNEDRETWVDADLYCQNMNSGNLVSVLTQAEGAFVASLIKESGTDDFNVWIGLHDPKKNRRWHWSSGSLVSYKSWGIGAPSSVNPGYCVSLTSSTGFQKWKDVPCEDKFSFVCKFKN
Assay: sandwich ELISA; capture 11D11B11; REG1A 0 ng/mL (blank)
One number for each entry, in OD.

Illustrative cases are given below, each with its answer.
[[record]]
binder = "antibody 12F12A10 (antibody, V domains shown, Mouse monoclonal from hybridoma, stated mouse IgG1/Kappa; also called 12F12A10-biotin; Antibody 2) VH: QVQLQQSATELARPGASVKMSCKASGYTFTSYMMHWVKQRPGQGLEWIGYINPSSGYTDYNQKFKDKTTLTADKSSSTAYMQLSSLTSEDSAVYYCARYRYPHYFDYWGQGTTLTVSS VL: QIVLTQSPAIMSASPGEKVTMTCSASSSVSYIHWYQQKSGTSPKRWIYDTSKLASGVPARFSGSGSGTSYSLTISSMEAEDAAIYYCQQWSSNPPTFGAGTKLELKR"
assay_result = 0.083

[[record]]
binder = "antibody 21B11D2 (antibody, mouse IgG2b, kappa, V domains shown, Mouse monoclonal from hybridoma, stated mouse IgG1/Kappa; Used unlabelled as capture and biotin-labelled as detection antibody; also called 21B11D2-biotin) VH: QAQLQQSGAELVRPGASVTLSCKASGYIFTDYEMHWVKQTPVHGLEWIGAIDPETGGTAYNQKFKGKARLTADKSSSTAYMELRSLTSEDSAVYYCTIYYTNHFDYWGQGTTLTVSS VL: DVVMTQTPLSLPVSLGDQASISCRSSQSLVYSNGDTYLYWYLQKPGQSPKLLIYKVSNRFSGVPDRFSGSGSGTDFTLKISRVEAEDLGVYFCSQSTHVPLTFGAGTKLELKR"
assay_result = 0.068

[[record]]
binder = "antibody 4H8F1 (antibody, V domains shown, Mouse monoclonal from hybridoma, stated mouse IgG1/Kappa; also called 4H8F1-biotin; Antibody 1) VH: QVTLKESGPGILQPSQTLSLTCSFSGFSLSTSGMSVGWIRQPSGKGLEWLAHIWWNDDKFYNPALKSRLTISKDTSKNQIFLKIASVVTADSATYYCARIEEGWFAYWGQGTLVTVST VL: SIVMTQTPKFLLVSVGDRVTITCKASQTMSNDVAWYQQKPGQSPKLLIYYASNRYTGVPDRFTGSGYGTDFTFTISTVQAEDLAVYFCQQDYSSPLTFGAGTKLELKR"
assay_result = 1.21


Now consider the entry below.
Specify measured OD value for antibody 11D11B11 (antibody, mouse IgG2a, kappa, V domains shown, Mouse monoclonal from hybridoma, stated mouse IgG1/Kappa; Used unlabelled as capture and biotin-labelled as detection antibody; also called 11D11B11-biotin) VH: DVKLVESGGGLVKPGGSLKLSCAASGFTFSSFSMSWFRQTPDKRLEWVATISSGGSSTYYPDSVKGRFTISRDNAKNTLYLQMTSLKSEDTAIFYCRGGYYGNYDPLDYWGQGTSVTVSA VL: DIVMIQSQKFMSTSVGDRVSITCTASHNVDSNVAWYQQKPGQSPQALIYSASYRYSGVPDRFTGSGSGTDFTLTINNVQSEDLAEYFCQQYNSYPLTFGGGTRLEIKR . 0.079
